assay: gradient 5% acetonitrile 3 min, to 50% in 2 min, to 85% in 15 min, held 3 min, 100 µL/min; settings: column: Zorbax Extend-C18 2.1 x 50 mm; eluents: water / acetonitrile, 0.1% formic acid
OBSERVABLE: RP-LC retention time (s)
Write the number in s without appending the unit.

CCCCC(=O)N1CCN(C2CCN(CCOC)C2=O)CC1 (stereo not given) | 535
CCOc1ccc(-c2noc(Cn3ccn4nc(-c5ccc(Cl)cc5)cc4c3=O)n2)cc1OC | 1130
O=C(NCCCN1CCOCC1)C1CCCN(c2ncc(-c3cccc(F)c3)cn2)C1 (stereo not given) | 653
O=C(c1ccoc1)N1CCCC(c2nnc3n2CCN(C(=O)C2CC2)C3)C1 (stereo not given) | 591
CCOC(=O)C1CCN(C(=O)c2cc(CC)n3nc(-c4ccco4)cc3n2)CC1 | 886

Prompt line: // returns reported RP-LC retention time for input `COc1cc(-c2c(NC(=O)c3ccco3)sc3ccccc3c2=O)cc(OC)c1OC`
Response line: 828

Prompt line: How about this compound: `C=CCN1C(=O)COc2ccc(-c3csc(NC(=O)c4ccc(Cl)cc4)n3)cc21`
Response line: 1100

Prompt line: What would you report for `O=C(NC1CCN(c2nnc3ccccn23)CC1)c1cc2c(s1)CCCC2` ?
Response line: 742

Prompt line: Follow-up item: O=C(O)C1CCc2sc(C(=O)N3CCOCC3)cc2C1 (stereo not given)
Response line: 625

Prompt line: // repeat for `Cc1c(Cc2ccccc2)[n+](=O)c2ccccc2n1[O-]` and report
Response line: 1020

----------
test: gradient 5% acetonitrile 3 min, to 50% in 2 min, to 85% in 15 min, held 3 min, 100 µL/min; conditions: column: Zorbax Extend-C18 2.1 x 50 mm; eluents: water / acetonitrile, 0.1% formic acid
So basically: is RP-LC retention time under 900 s? Then class 1. Not under? Then class 0.

Past entries and their recorded results:
Cc1cc(NC(=O)CSc2nnc(Cc3ccccc3)o2)no1 | class 1
c1cc(CN2CC(Oc3ccc(-c4noc(C5CCOCC5)n4)cc3)C2)cs1 | class 1
O=C(Cn1nc2n(c1=O)CCCCC2)Nc1ccccc1C(F)(F)F | class 1
CCOC(=O)Cn1c(=O)c2cnc(-c3ccc(C)cc3)nc2n(C)c1=O | class 0
COc1cccc2cc(C(=O)N(CCc3cccs3)Cc3cccnc3)oc12 | class 1
CCc1cccc(NC(=O)C2CCCN2S(=O)(=O)c2cc3c(cc2Cl)NC(=O)CO3)c1 (centres undefined) | class 1
O=C(NCc1ccc2c(c1)OCO2)C1CCN(C(=O)c2cc(-c3cccnc3)n[nH]2)CC1 | class 1
CCCCN(CCCNC(=O)C1CCN(S(=O)(=O)N2CCOCC2)CC1)Cc1ccccc1 | class 1
COc1ccccc1N1CCN(CC2CN3C(=O)N(C)c4ccccc4C3=N2)CC1 (centres undefined) | class 1
Cc1ccc(N2C(=O)CN(S(=O)(=O)c3ccc(C)cc3)CC2(C)C(=O)NC2CCCC2)cc1 (centres undefined) | class 0

Prompt line: Answer whether the compound `COc1ccc(NC(=O)Cc2csc3nc(-c4cccc(Cl)c4)cn23)cc1OC` has RP-LC retention time strictly less than 900 s
Response line: class 1

Prompt line: Here is the next compound: `CCOC(=O)c1c(C)[nH]c(C(=O)N2CCC(CC(=O)N3CCCCC3)CC2)c1C`
Response line: class 1

Prompt line: # repeat for `O=C(Cc1ccc(F)cc1)N1CCc2cc(-c3ccno3)ccc21`
Response line: class 0

Prompt line: `CCc1ccc(NC(=O)C2CCN(S(=O)(=O)c3cn(C)cn3)CC2)cc1` ?
Response line: class 1

Prompt line: Try this compound too: `CC(C)(C)CC(=O)N1CCN(c2nc(CN3CCCCCC3)cs2)CC1`
Response line: class 1

Prompt line: And Cc1ccc(-c2noc(CN3N=NC4C(=O)N(c5ccc(C)cc5)C(=O)C43)n2)cc1 (centres undefined) ?
Response line: class 0

Prompt line: What do you have for `Cc1nn(-c2ccc(Cl)cc2)c(C)c1S(=O)(=O)N1CCC(C(=O)N2CCCCC2)CC1` ?
Response line: class 0

----------
assay: gradient 5% acetonitrile 3 min, to 50% in 2 min, to 85% in 15 min, held 3 min, 100 µL/min; settings: column: Zorbax Extend-C18 2.1 x 50 mm; eluents: water / acetonitrile, 0.1% formic acid
OBSERVABLE: RP-LC retention time (s)
Kindly provide the numeric value in s only, without the unit symbol.

Prompt line: # query: RP-LC retention time of entry `Cc1ccc(Nc2nc(-c3ccc(C)cc3C)cs2)nc1`
Response line: 965

Prompt line: Same for `Cc1ccc(NC(=O)Nc2nccn(-c3cccc(F)c3)c2=O)cc1C`
Response line: 1020

Prompt line: How about COCC1CN(C2CCC2)CC12CCN(C(=O)c1sccc1C)CC2 (stereo not given) ?
Response line: 597

Prompt line: COc1ccc(C2(C(=O)N3CCCC(Cn4cnc5cccnc54)C3)CC2)cc1 (stereo not given) ?
Response line: 656

Prompt line: Consider next the compound `CCSc1ccccc1C(=O)NCCCn1cccc1` in the same way.
Response line: 791

----------
Measured RP-LC retention time values are reported for all entries that follow.
assay: gradient 5% acetonitrile 3 min, to 50% in 2 min, to 85% in 15 min, held 3 min, 100 µL/min; conditions: column: Zorbax Extend-C18 2.1 x 50 mm; eluents: water / acetonitrile, 0.1% formic acid
Give just the numeric value; s need not be written.

Cn1cc(-c2cc3n(n2)CCC(=O)N3CCCC(=O)N2CCN(c3ccccc3)CC2)c2ccccc21 | 859
COc1ccc(NC(=O)N2CCc3cn(C)c4cccc(c34)C2)cc1 | 844
CCCNC(=O)Nc1ccc(NC(=O)N2CCCC(C(=O)NC3CCCCC3)C2)cc1 (centres undefined) | 702

Prompt line: Recorded RP-LC retention time for CC(C)CCNC(=O)C1CCCN(c2nc3ccsc3c(=O)n2Cc2ccc(F)cc2)C1 (centres undefined) , please?
Response line: 954

Prompt line: Here is the next compound: COc1cccc(CNC(=O)C2(C)CCCN(C(=O)Nc3ccccc3)C2)c1 (centres undefined)
Response line: 839

Prompt line: Next compound: COc1ccc(C(=O)NC2CCN(c3cc(C)cc(C)c3)C2=O)cc1F (centres undefined)
Response line: 901

Prompt line: Same read-out for `O=C(c1cc2ccccc2[nH]1)N1CCN(c2cc(-c3cccs3)[nH]n2)CC1` ?
Response line: 832

Prompt line: Proceed to `O=C(c1cc(-c2cccnc2)n[nH]1)N1CCN(C(=O)c2cc3ccccc3[nH]2)CC1`
Response line: 633

Prompt line: Query `Cc1ccnc(N2CCC(C(=O)NCCCN(C)C3CCCCC3)CC2)n1` next
Response line: 587

----------
RP-LC retention time values for the compounds below.
experiment: gradient 5% acetonitrile 3 min, to 50% in 2 min, to 85% in 15 min, held 3 min, 100 µL/min; settings: column: Zorbax Extend-C18 2.1 x 50 mm; eluents: water / acetonitrile, 0.1% formic acid
# number then unit; no other words

O=C(Nc1cc(Cl)cc(Cl)c1)N1CC(Cc2nc(-c3cnccn3)no2)C1 | 838 s
COc1ccc(C(=O)N2CCc3ccc(C(=O)O)cc32)cc1 | 741 s
Cn1cc(C2c3nccn3CCCN2S(=O)(=O)c2cccc(C(F)(F)F)c2)cn1 (stereo not given) | 656 s
O=C1CCCC(=O)N1CCS(=O)(=O)N1CCN(Cc2nc3ccccc3[nH]2)CC1 | 554 s

Prompt line: State the recorded RP-LC retention time for this entry: `CCn1ncc(NC(=O)c2ccc(C)cc2)c(N2CCOCC2)c1=O`
Response line: 816 s

Prompt line: Next record, please: Cc1ccn2cc(-c3ccc(NC(=O)C(C)Oc4ccccc4)cc3)nc2n1 (stereo not given)
Response line: 672 s

Prompt line: Another: `Cc1cc(=O)n(CC(=O)Nc2cccc(F)c2)c(N2CCCC2)n1`
Response line: 634 s

Prompt line: Try this compound next: `COC(=O)c1ccc(NC(=O)C(=O)NCCc2ccc(N3CCCC3)cc2)cc1`
Response line: 910 s

Prompt line: And `CCCN1N=C(C(=O)N2CCCCCC2)S(=O)(=O)c2ccc(C)cc21` ?
Response line: 991 s

Prompt line: Follow-up item: `CCCNc1nc(-c2ccc(OC)cc2)nc2ccccc12`
Response line: 734 s

----------
test: gradient 5% acetonitrile 3 min, to 50% in 2 min, to 85% in 15 min, held 3 min, 100 µL/min; conditions: column: Zorbax Extend-C18 2.1 x 50 mm; eluents: water / acetonitrile, 0.1% formic acid
OBSERVABLE: RP-LC retention time

CCS(=O)(=O)Nc1ccc2nc(N3CCN(c4cccc(C)c4C)CC3)cc(C(=O)O)c2c1 | 743 s
Cc1cc(-c2nnc(C3CC3)o2)c(C)n1CC(=O)NCc1ccc(Cl)cc1 | 850 s
Cc1cc2[nH]c(C(=O)NC(C)c3ccccc3)c(CN3CCOCC3)c2s1 (centres undefined) | 688 s
CC(C)c1noc(-c2ccn3c(CC(=O)NC4CCCCCC4)nnc3c2)n1 | 823 s
COCCn1ccc2nc(C)c(C(=O)NCc3ccc4c(c3)OCO4)cc2c1=O | 664 s

Consider the record given below.
Prompt line: Any idea what its RP-LC retention time is? The compound is `CCc1ccc(S(=O)(=O)N2CCC(c3nc(C(=O)N4CCOCC4)c(C)o3)CC2)cc1`
Response line: 904 s

These data points were gathered from the METLIN SMRT retention time set (Domingo-Almenara et al. 2019).
